# target or test system: T1, biotinylated recombinant human FAP (human, UniProt Q12884 27-760, biotinylated)
# T1 construct: the Biacore paragraphs only say biotinylated (recombinant) human FAP; also called biotinylated human FAP; recombinant huFAP
# assay details: SPR (Biacore)
Catalogue of binders with associated T ½
Answer in h, number only, no unit symbol.

Would you please look over these solved cases?
[
  {
    "binder": "P1AE1689_Fab, humanized anti-FAP Fab VH1G1a/VL1G1a (Fab, V domains shown, also called FAP antibody 1G1a; H212) VH: QVQLVQSGAEVKKPGASVKVSCKASGYTLTDYNMDWVRQAPGQGLEWIGDIYPNTGGTIYNQKFKGRVTMTIDTSTSTVYMELSSLRSEDTAVYYCTRFRGIHYAMDYWGQGTTVTVSS VL: EIVLTQSPATLSLSPGERATLSCRASESVDNYGLSFINWFQQKPGQAPRLLIYGTSNRGSGIPARFSGSGSGTDFTLTISSLEPEDFAVYFCQQSNEVPYTFGGGTKVEIK",
    "units of measure": "h",
    "observed measurement": 4.57
  },
  {
    "binder": "P1AE1693_Fab, humanized anti-FAP Fab VH1G2a/VL1G2a (Fab, V domains shown) VH: QVQLVQSGAEVKKPGASVKVSCKASGYTLTDYNMDWVRQAPGKSLEWIGDIYPNTGGTIYNQKFKGRVTMTIDKSTSTVYMELSSLRSEDTAVYYCTRFRGIHYAMDYWGQGTTVTVSS VL: EIVLTQSPATLSLSPGERATLSCRASESVDNYGLSFINWFQQKPGQPPRLLIYGTSNRGSGIPARFSGSGSGTDFTLTISSLEPEDFAVYFCQQSNEVPYTFGGGTKVEIK",
    "units of measure": "h",
    "observed measurement": 2.68
  },
  {
    "binder": "P1AE1702_Fab, humanized anti-FAP Fab VH2G2a/VL2G2a (Fab, V domains shown) VH: EVQLLESGGGLVQPGGSLRLSCAASGYTLTDYNMDWVRQAPGKGLEWVGDIYPNTGGTIYNQKFKGRFTISIDKSKNTAYLQMNSLRAEDTAVYYCTRFRGIHYAMDYWGQGTTVTVSS VL: DIQMTQSPSSLSASVGDRVTITCRASESVDNYGLSFINWFQQKPGQPPKLLIYGTSNRGSGVPSRFSGSGSGTDFTLTISSLQPEDFAMYFCQQSNEVPYTFGGGTKVEIK",
    "units of measure": "h",
    "observed measurement": 1.8
  },
  {
    "binder": "P1AE1690_Fab, humanized anti-FAP Fab VH1G2a/VL1G1a (Fab, V domains shown) VH: QVQLVQSGAEVKKPGASVKVSCKASGYTLTDYNMDWVRQAPGKSLEWIGDIYPNTGGTIYNQKFKGRVTMTIDKSTSTVYMELSSLRSEDTAVYYCTRFRGIHYAMDYWGQGTTVTVSS VL: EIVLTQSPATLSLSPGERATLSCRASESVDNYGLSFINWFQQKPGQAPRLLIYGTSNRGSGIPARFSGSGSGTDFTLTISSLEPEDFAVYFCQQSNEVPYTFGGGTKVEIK",
    "units of measure": "h",
    "observed measurement": 3.05
  }
]

Here is the next item to consider.
Which T ½ is listed for 4B9_Fab (Fab, V domains shown, Fab; also called anti-FAP 4B9 Fab) VH: EVQLLESGGGLVQPGGSLRLSCAASGFTFSSYAMSWVRQAPGKGLEWVSAIIGSGASTYYADSVKGRFTISRDNSKNTLYLQMNSLRAEDTAVYYCAKGWFGGFNYWGQGTLVTVSS VL: EIVLTQSPGTLSLSPGERATLSCRASQSVTSSYLAWYQQKPGQAPRLLINVGSRRATGIPDRFSGSGSGTDFTLTISRLEPEDFAVYYCQQGIMLPPTFGQGTKVEIK ?
0.917
